- Tested on: A673/TR/shEF
- Method Notes: cell viability (LOESS-normalised, relative to median of negative controls) (log2 ratio); higher = more viable cells (less compound effect), active = hit call of the paper (over 3 MAD below the median)
- Experimental Parameters: 2.5 µM; library screen: screen2; EWS-FLI1 expression: high (no doxycycline); treatment time: 72 h
Hit rate of the full screen: of about 3,200 compounds, about 300 (9.4%) showed activity. For the sample, actives were picked, then their nearest neighbours and some compounds at random.
Hello, when you answer, please use one of the following outcomes: label 1 = active, label 0 = inactive

The examples below pair each entry with its known result.
O=C(N[C@@H](Cc1ccccc1)C(=O)CCl)OCc1ccccc1 = label 1
CC(C)[C@H](NC(=O)OCc1ccccc1)C(=O)N[C@H](C=O)Cc1ccccc1 = label 0
O=S(=O)(c1cccc2cnccc12)N1CCNCC1 = label 0
O=S(=O)(c1cccc2c(I)cccc12)N1CCCNCC1 = label 0

Data request: What did this assay record as the result for O[Si](CCCN1CCCCC1)(c1ccc(F)cc1)C1CCCCC1 (stereo unspecified) ?
Data returned: label 0

---

Recorded cell viability (log2) by entry
- Tested on: A673/TR/shEF
- Method Notes: cell viability (LOESS-normalised, relative to median of negative controls) (log2 ratio); higher = more viable cells (less compound effect), active = hit call of the paper (over 3 MAD below the median)
- Experimental Parameters: 0.926 µM; library screen: screen3; EWS-FLI1 expression: low (doxycycline-induced shRNA knockdown); treatment time: 72 h
Among all 3,200 compounds or so, about 300 (9.4%) showed activity. The entries come from a sample that favours actives as a whole.
Please give the numeric answer without any surrounding text.

Some molecules with recorded cell viability (log2):
Cc1cn([C@H]2C=C[C@@H](CO)O2)c(=O)[nH]c1=O = 0.0163
O=c1[nH]c(=O)n([C@H]2C[C@H](O)[C@@H](CO)O2)cc1F = 0.0595
CCCCCOC(=O)Nc1nc(=O)n([C@@H]2O[C@H](C)[C@@H](O)[C@H]2O)cc1F = 0.121

Could you now consider this next molecule?
Data request: Find the recorded cell viability (log2) belonging to CCC(C)[C@H]1O[C@]2(CC[C@@H]1C)CC1C[C@@H](C/C=C(\C)[C@@H](O[C@H]3C[C@H](OC)[C@@H](OC4C[C@H](OC)[C@@H](O)[C@H](C)O4)[C@H](C)O3)[C@@H](C)/C=C/C=C3\CO[C@@H]4[C@H](O)C(C)=C[C@@H](C(=O)O1)[C@]34O)O2.CO[C@H]1CC(O[C@H]2[C@H](C)O[C@@H](O[C@@H]3/C(C)=C/C[C@@H]4CC(C[C@]5(CC[C@H](C)[C@@H](C(C)C)O5)O4)OC(=O)[C@@H]4C=C(C)[C@@H](O)[C@H]5OC/C(=C\C=C\[C@@H]3C)[C@]54O)C[C@@H]2OC)O[C@@H](C)[C@@H]1O (some centres undefined) and report it.
Data returned: -0.0397

---

- Test system: A673/TR/shEF
- Method Notes: cell viability (LOESS-normalised, relative to median of negative controls) (log2 ratio); higher = more viable cells (less compound effect), active = hit call of the paper (over 3 MAD below the median)
- Experimental Parameters: 25 µM; library screen: screen3; EWS-FLI1 expression: high (no doxycycline); treatment time: 72 h
In all, about 3,200 compounds went through this assay and about 300 (9.4%) showed activity. Shown is part of a subset that was picked to be rich in actives.
Listing of entries alongside the reported cell viability (log2).
Respond using a number only.

For orientation, consider the following solved cases.
C[C@H](Cn1cnc2c(N)ncnc21)OCP(=O)(O)O = 0.0436
Nc1ccn([C@H]2CC[C@@H](CO)O2)c(=O)n1 = 0.132
Cn1cncc1[C@@](N)(c1ccc(Cl)cc1)c1ccc2c(c1)c(-c1cccc(Cl)c1)cc(=O)n2C = -0.511

Data request: Given CC1(C)C(=O)N(CCN2CCC(C(=O)c3ccc(F)cc3)CC2)c2ccccc21 , state its recorded cell viability (log2).
Data returned: 0.0894

Data request: Given the compound Cc1ccc(NC(=O)c2ccc(CN3CCN(C)CC3)cc2)cc1Nc1nccc(-c2cccnc2)n1 , what is its reported cell viability (log2)?
Data returned: -0.195

Data request: Field request: cell viability (log2) | item: CC[C@H](CO)Nc1nc(NCc2ccccc2)c2ncn(C(C)C)c2n1
Data returned: 0.0337

Data request: Suppose we examine the compound COc1ccc2nc([S@@+]([O-])Cc3ncc(C)c(OC)c3C)[nH]c2c1 ; what cell viability (log2) value has been reported?
Data returned: -0.0361

Data request: Bench note: what cell viability (log2) did Nc1ccccc1NC(=O)c1ccc(CNc2nccc(-c3cccnc3)n2)cc1 show?
Data returned: -3.23

Data request: For the compound Nc1ccn([C@@H]2CS[C@H](CO)O2)c(=O)n1 , what cell viability (log2) is on record?
Data returned: 0.101

Data request: Need cell viability (log2) of C[C@@H](O)[C@H]1C(=O)N2C(C(=O)[O-])=C(SC3Cn4cnc[n+]4C3)[C@H](C)[C@H]12 (stereo partly specified) , thanks.
Data returned: 0.131

Data request: What cell viability (log2) value was documented for this compound, Nc1ccc(S(=O)(=O)Nc2ncccn2)cc1 ?
Data returned: 0.0911

---

- Test system: A673/TR/shEF
- Method Notes: cell viability (LOESS-normalised, relative to median of negative controls) (log2 ratio); higher = more viable cells (less compound effect), active = hit call of the paper (over 3 MAD below the median)
- Experimental Parameters: 0.103 µM; library screen: screen3; EWS-FLI1 expression: low (doxycycline-induced shRNA knockdown); treatment time: 72 h
The whole screen tested about 3,200 compounds, of which about 300 (9.4%) showed activity. The sample as a whole holds a higher share of actives than the screen did.
cell viability (log2) reference
Give your answer as a number; write no unit.

Record excerpt, results attached:
CO[C@@H](C(=O)N1Cc2[nH]nc(NC(=O)c3ccc(N4CCN(C)CC4)cc3)c2C1)c1ccccc1 = 0.0472
c1cc(CN2CCCNCCNCCCNCC2)ccc1CN1CCCNCCNCCCNCC1 = 0.0496
CCCCC(=O)N(Cc1ccc(-c2ccccc2-c2nn[nH]n2)cc1)[C@H](C(=O)O)C(C)C = -0.0095
CC(C)C[C@H](NC(=O)[C@H](Cc1ccccc1)NC(=O)c1cnccn1)B(O)O = -0.0845
FC(F)(F)c1ccc(/C=C/c2nc(COc3ccc(CCCCn4ccnn4)cc3)co2)cc1 = -0.0943

Data request: Record Clc1ccc(COC(Cn2ccnc2)c2ccc(Cl)cc2Cl)cc1 (stereo not given) : what is its cell viability (log2) with A673/TR/shEF?
Data returned: 0.0214

Data request: Under A673/TR/shEF: cell viability (log2) value of COc1c/c(=C2\C=c3ccccc3=N2)[nH]/c1=C\c1[nH]c(C)cc1C ?
Data returned: -0.0389

Data request: For the record Oc1ccc(OCc2ccccc2)cc1 , what value of cell viability (log2) is listed for A673/TR/shEF?
Data returned: -0.0268

Data request: # value lookup — system A673/TR/shEF, readout cell viability (log2), item OCC1OC(O)C(O)C(O)C1O (stereo not given)
Data returned: 0.0347

Data request: For A673/TR/shEF, provide cell viability (log2) of CS(=O)(=O)c1ccc(C(=O)Nc2ccc(Cl)c(-c3ccccn3)c2)c(Cl)c1 please.
Data returned: 0.046

---

- Tested on: A673/TR/shEF
- Method Notes: cell viability (LOESS-normalised, relative to median of negative controls) (log2 ratio); higher = more viable cells (less compound effect), active = hit call of the paper (over 3 MAD below the median)
- Experimental Parameters: 25 µM; library screen: screen1; EWS-FLI1 expression: high (no doxycycline); treatment time: 72 h
Screen size: about 3,200 compounds; about 300 (9.4%) showed activity. The list comes from a sample in which actives are over-represented; it also holds close analogues and randomly drawn compounds.
Assign a class; possible classes are active, inactive

A selection of reference data follows.
COc1cc2ncnc(Nc3cccc(Cl)c3)c2cc1OC = active
Nc1ncc2[nH]cnc2n1 = inactive
O=C1c2ccccc2-c2n[nH]c3cccc1c23 = active

Data request: Check the results log: what was the call for COCc1cc(O)c(O)c(O)c1-c1c(COC)cc(O)c(O)c1O ?
Data returned: active

Data request: What was the test verdict on O=c1c(-c2ccc(O)cc2)coc2cc(O)ccc12 ?
Data returned: inactive

Data request: Any idea what this test logged for O=c1c(O)c(-c2ccc(O)c(O)c2)oc2cc(O)cc(O)c12 ?
Data returned: active

Data request: Dear all, I need the recorded test outcome for c1ccc(C2CN3CCSC3=N2)cc1 (configuration not stated) , thank you.
Data returned: active

Data request: Which result was noted for this molecule in the test: N#C/C(=C\c1cc(Cl)cc(Cl)c1)c1cccnc1
Data returned: inactive
